We begin with a simple list: items and their reported pKi.
biological target: cloned human CCR8 receptor stably expressed in L1.2 cells (Homo sapiens); construct: expressed in transfected cells; test: whole cell binding screen: inhibition of biotinylated human I309 binding to CCR8 (FMAT 8100 HTS); conditions: L1.2/hCCR8 cells, biotinylated human I-309, 10 point concentration response starting at 10 μM; read-out: Ki of compounds to inhibit I-309 binding to CCR8
Sequence (P51685 whole entry): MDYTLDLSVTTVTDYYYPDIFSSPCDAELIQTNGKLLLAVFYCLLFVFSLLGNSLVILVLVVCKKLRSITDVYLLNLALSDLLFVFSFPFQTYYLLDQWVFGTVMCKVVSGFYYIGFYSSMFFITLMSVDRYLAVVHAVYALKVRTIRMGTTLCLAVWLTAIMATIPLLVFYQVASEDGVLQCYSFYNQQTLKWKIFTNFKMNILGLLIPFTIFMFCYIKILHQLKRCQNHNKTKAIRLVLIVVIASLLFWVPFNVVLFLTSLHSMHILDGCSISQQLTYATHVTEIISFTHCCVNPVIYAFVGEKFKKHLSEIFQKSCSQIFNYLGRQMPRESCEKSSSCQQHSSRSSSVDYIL
pKi: −log10 of the molar value.

Some solved cases for reference:
Cc1ccccc1C(=O)Nc1ccc(S(=O)(=O)NC2CCN(C(=O)C(C)C)CC2)c2c1CCCC2    > 6.30
CCc1ccc(NS(=O)(=O)c2cccc3c(NC(=O)c4ccccc4)cccc23)cc1    > 4.52
CCOC(=O)N1CCC(NS(=O)(=O)c2cccc3c(NC(=O)c4ccc(C)s4)cccc23)CC1    > 6.30
C[C@@H]1CNCC[C@@H]1NS(=O)(=O)c1ccc(N2C(=O)c3ccccc3C2=O)c2ccccc12 (racemic)    > 4.52
CC[C@H]1CN(C(=O)[C@H](C)N)CC[C@@H]1NS(=O)(=O)c1ccc(NC(=O)c2ccccc2C)c2ccccc12    > 6.30
CC(C)(C)OC(=O)N1CCC(NS(=O)(=O)c2ccc(NC(=O)c3ccncc3)c3ccccc23)CC1    > 4.52

Attention now shifts to the item below.
Query for cloned human CCR8 receptor stably expressed in L1.2 cells (Homo sapiens): what pKi does the record show for CCOC(=O)N1CCC(NS(=O)(=O)c2cccc3c(C(=O)Nc4cccc(C)c4C)cccc23)CC1 ?
> 6.30
